- protocol-summary: NCI Yeast Anticancer Drug Screen. Data for the cln2 rad14 strain (AID 165);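 further: 0% = growth equal to vehicle treated cultures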
- study-conditions: S. cerevisiae cln2 rad14 strain, at 50.0 µM, stronger effect = higher value
This is part of a sample that, as a whole, favours compounds with a hit. Of some 79,000 tested, about 15% had one in any assay.
Would you mind labelling by growth inhibition? At or over 10% is True, under is False.

COc1c2ccoc2cc2oc(=O)ccc12    True
CC(=O)NC(=O)CC(=O)c1ccccc1    True
COc1ccccc1C(=O)NO    False
CSCCCCCSC    False
Cc1cccc(N=C2NC(=O)C(CC(=O)Nc3ccccc3Cl)S2)c1 (stereo not drawn)    False
CC(Oc1ccc2c(-c3ccc(Cl)cc3)cc(=O)oc2c1)C(=O)O (stereo not drawn)    True
C/C=C/C(O)CC (stereo not drawn)    False
NCC(=O)N[C@H]1c2ccsc2/C(=N/O)[C@H]1O    True

----------
growth inhibition for assorted compounds
- protocol-summary: NCI Yeast Anticancer Drug Screen. Data for the rad50 strain (AID 155);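 further: 0% = growth of vehicle-only cultures of the same strain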
- study-conditions: S. cerevisiae rad50 strain growth inhibition; at 50.0 µM; stronger effect = higher value
The panel holds about 79,000 compounds, 15% with a hit somewhere; the sample as a whole holds those more often.
value-kind: growth inhibition (%)

COC(=O)c1cc(-c2ccc3ccccc3c2)[nH]c(=O)c1C#N    34.4
N#CC(/C(=N/NC(=O)C(=O)NN)C(=O)NC12CC3CC(CC(C3)C1)C2)c1ccccc1 (stereo not drawn)    16.1
CN1C/C(=C\c2ccc(N(C)C)cc2)C(=O)/C(=C/c2ccc(N(C)C)cc2)C1    -17.6

----------
growth inhibition for assorted molecules
- protocol-summary: NCI Yeast Anticancer Drug Screen. Data for the sgs1 mgt1 strain (AID 161);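 further: 0% = growth of cultures given vehicle only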
- study-conditions: S. cerevisiae sgs1 mgt1 strain, at 50.0 µM, stronger effect = higher value
This is part of a sample that, as a whole, favours compounds with a hit. Of some 79,000 tested, about 15% had one in any assay.
value-kind: growth inhibition (%)

NC(=O)c1cc2c(c3c1CCCC3)CCCC2    -3.55
O=C(O)CNCCO    6.65
CCO/C=N\C1=C(C#N)SC2=N/C(=C\c3ccco3)C(=O)N21    -7.4
Fc1cccc(Cl)c1/C=N\N=C1c2ccccc2-c2ccccc21    -22.4
COc1cc(C2c3cc4c(cc3[C@@H](Nc3ccc(C#N)cc3)C3COC(=O)[C@H]23)OCO4)cc(OC)c1O (stereo partly specified)    89.5
CCOC(=O)C1=NC(c2ccccc2)(c2ccccc2)OC1=C(Cl)Cl    -0.2
CCn1c(=O)c(Cl)c2n(C)c3ccccc3n2c1=O    -2.85
COc1ccc(-c2cc(N)c3c(c2O)C(=O)c2c(N)ccc(O)c2C3=O)cc1    4.75
CC1(C)C2CC3OC3(C)C1C2 (stereo unspecified)    12.4
Nc1nc(Cl)cc(Nc2cc(Cl)cc(Cl)c2)n1    79.7
CN(C)CCNCCN    -6.2

----------
- protocol-summary: NCI Yeast Anticancer Drug Screen. Data for the mec2-1 strain (AID 157)
- study-conditions: S. cerevisiae mec2-1 strain, at 50.0 µM, stronger effect = higher value
This is part of a sample that, as a whole, favours compounds with a hit. Of some 79,000 tested, about 15% had one in any assay.
value-kind: growth inhibition (%)

CC1=CC(=O)C(=Ic2ccccc2)C(=O)O1    -8.25
CC(O)(C1CC1)C(C(=O)O)c1ccccc1 (centres undefined)    -6.85
COc1ccc(-c2cc(-c3ccccc3)c(C#N)c(=O)[nH]2)cc1    5.85
CCC(C)OC(=Nc1ccccc1)c1ccccc1 (centres undefined)    5.95
